biological target: Melanocyte-stimulating hormone receptor (Homo sapiens); test: Tested for its binding affinity towards human recombinant Melanocortin 1 receptor by using radioligand binding assay
Sequence (Q01726 whole entry): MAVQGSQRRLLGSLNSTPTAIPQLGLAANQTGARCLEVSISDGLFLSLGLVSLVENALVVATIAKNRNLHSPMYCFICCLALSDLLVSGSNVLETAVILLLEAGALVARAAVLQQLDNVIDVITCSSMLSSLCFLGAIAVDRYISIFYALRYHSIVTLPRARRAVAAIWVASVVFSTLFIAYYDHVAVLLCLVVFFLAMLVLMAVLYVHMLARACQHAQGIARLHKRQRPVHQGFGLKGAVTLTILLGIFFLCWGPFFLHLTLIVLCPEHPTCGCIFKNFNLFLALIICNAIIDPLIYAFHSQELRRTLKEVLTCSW
Listed next: entries and their corresponding pKi.
Just so you know, pKi here is -log10 of the concentration in molar units; reply with that number alone.

NC(N)=NCCC[C@H](N)C(=O)N(Cc1ccc2ccccc2c1)Cc1cccc2ccccc12 (stereo in doubt; 11b) : 6.16
c1ccc2cc(CNCCc3c[nH]c4ccccc34)ccc2c1 : 4.80
N=C(N)NCCCNCc1c[nH]c2ccccc12 : 4.92
N=C(N)NCCCNCc1ccc2ccccc2c1 : 4.72
NC(N)=NCCC[C@H](N)C(=O)N(Cc1ccc2ccccc2c1)Cc1cccc2ccccc12 (stereo in doubt; 11c) : 5.92
N[C@H](CCC(=O)O)C(=O)N(Cc1ccc2ccccc2c1)Cc1cccc2ccccc12 : 4.34
NCCCNCc1c[nH]c2ccccc12 : 4.55
c1ccc2c(CNCc3c[nH]c4ccccc34)cccc2c1 : 4.59

Now take the following compound into account.
Query: Tell me pKi reported for NC(N)=NCCCC(N)C(=O)N(CCc1c[nH]c2ccccc12)Cc1ccc2ccccc2c1 (single isomer, unassigned)
Result: 5.82

---

target: Melanocortin receptor 3 (Homo sapiens); experiment: Tested for its binding affinity towards human recombinant Melanocortin 3 receptor by using radioligand binding assay
Sequence (P41968 whole entry): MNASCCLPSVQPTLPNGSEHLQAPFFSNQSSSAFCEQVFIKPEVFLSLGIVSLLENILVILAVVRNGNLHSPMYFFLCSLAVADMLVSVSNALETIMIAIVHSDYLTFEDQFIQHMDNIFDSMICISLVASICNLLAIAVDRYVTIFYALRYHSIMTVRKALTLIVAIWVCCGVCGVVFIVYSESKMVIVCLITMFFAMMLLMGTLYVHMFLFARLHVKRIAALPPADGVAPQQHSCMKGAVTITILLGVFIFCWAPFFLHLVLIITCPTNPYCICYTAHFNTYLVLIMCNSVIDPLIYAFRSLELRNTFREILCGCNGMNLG
reported metric: Ki

Examples with their reported Ki follow.
N[C@H](CCC(=O)O)C(=O)N(Cc1ccc2ccccc2c1)Cc1cccc2ccccc12 : 294 µM
c1ccc2cc(CNCc3cccc4ccccc34)ccc2c1 : > 1000 µM
c1ccc2c(CCNCc3c[nH]c4ccccc34)c[nH]c2c1 : 86 µM
c1ccc2c(CN3CCNCC3)c[nH]c2c1 : > 1000 µM
c1ccc2cc(CNCCc3c[nH]c4ccccc34)ccc2c1 : 59 µM

Query: Tell me Ki reported for c1ccc2cc(CN3CCNCC3)ccc2c1
Result: > 1000 µM

Query: Tell me Ki reported for N=C(N)NCCCNCc1c[nH]c2ccccc12
Result: 45 µM

Query: Tell me Ki reported for NCCCNCc1ccc2ccccc2c1
Result: 57 µM

---

Listed next: entries and their corresponding Ki.
molecular target: UniProtKB P33032; test: Tested for its binding affinity towards human recombinant Melanocortin 5 receptor by using radioligand binding assay
Sequence (P33032 whole entry): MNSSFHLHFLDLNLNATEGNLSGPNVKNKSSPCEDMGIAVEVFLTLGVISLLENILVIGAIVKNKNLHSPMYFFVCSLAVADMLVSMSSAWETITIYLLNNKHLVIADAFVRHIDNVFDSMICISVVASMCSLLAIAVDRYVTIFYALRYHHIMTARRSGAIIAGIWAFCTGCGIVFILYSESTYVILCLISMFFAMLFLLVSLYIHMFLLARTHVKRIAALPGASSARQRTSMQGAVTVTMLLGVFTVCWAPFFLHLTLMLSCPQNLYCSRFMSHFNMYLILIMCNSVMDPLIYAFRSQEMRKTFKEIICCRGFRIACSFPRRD

Examples with their reported Ki follow.
c1ccc2cc(CN3CCNCC3)ccc2c1 : 141 µM
c1ccc2cc(CNCCc3c[nH]c4ccccc34)ccc2c1 : 14 µM
N=C(N)N1CCN(Cc2ccc3ccccc3c2)CC1 : 74 µM
NCCNC(=O)[C@H](CNCc1ccc2ccccc2c1)NCc1ccc2ccccc2c1 : 28 µM
N=C(N)NCCCNCc1c[nH]c2ccccc12 : 47 µM
c1ccc2c(CN3CCNCC3)c[nH]c2c1 : 256 µM

Query: Tell me Ki reported for NCCCNC(=O)[C@H](CNCc1c[nH]c2ccccc12)NCc1ccc2ccccc2c1
Result: 36 µM

Query: Tell me Ki reported for N=C(N)N1CCN(Cc2c[nH]c3ccccc23)CC1
Result: > 1000 µM

Query: Tell me Ki reported for NCCCCNC(=O)[C@H](CCCCNCc1c[nH]c2ccccc12)NCc1ccc2ccccc2c1
Result: 173 µM

Query: Tell me Ki reported for NC(N)=NCCCC(N)C(=O)N(CCc1c[nH]c2ccccc12)Cc1ccc2ccccc2c1 (single isomer, unassigned)
Result: 10 µM

---

biological target: UniProt:P32245; assay: Tested for its binding affinity towards human recombinant Melanocortin 4 receptor by using radioligand binding assay
Sequence (P32245 whole entry): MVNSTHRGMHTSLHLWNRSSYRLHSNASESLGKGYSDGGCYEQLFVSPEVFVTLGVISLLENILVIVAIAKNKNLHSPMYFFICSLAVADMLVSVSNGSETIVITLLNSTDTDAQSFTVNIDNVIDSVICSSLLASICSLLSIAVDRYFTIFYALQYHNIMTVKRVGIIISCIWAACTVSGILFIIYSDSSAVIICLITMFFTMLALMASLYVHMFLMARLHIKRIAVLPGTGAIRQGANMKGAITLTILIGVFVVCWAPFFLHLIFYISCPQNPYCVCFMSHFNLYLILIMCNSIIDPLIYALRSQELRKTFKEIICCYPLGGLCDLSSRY
Listed next: entries and their corresponding Ki.
Express your answer in µM, writing the number without its unit.

Examples with their reported Ki follow.
NCCNC(=O)[C@H](CNCc1ccc2ccccc2c1)NCc1ccc2ccccc2c1 : 44
c1ccc2cc(CNCCc3c[nH]c4ccccc34)ccc2c1 : 118
N[C@H](CCC(=O)O)C(=O)N(Cc1ccc2ccccc2c1)Cc1cccc2ccccc12 : 89
NC(N)=NCCCC(N)C(=O)N(CCc1c[nH]c2ccccc12)Cc1ccc2ccccc2c1 (single isomer, unassigned) : 15
NCCCNCc1ccc2ccccc2c1 : 94

Query: Tell me Ki reported for NCCCNCc1c[nH]c2ccccc12
Result: 104

Query: Tell me Ki reported for NCCNCc1ccc2ccccc2c1
Result: 8.8

Query: Tell me Ki reported for NC(N)=NCCC[C@H](N)C(=O)N(Cc1ccc2ccccc2c1)Cc1cccc2ccccc12 (stereo in doubt; 11c)
Result: 2.1

Source of measurements: ChEMBL document CHEMBL1135263
